These measurements were taken from PubChem BioAssay (NCI).

Test system: RXF 393 renal
Method: NCI-60 one-dose screen, 48 h (100 = growth as untreated, 0 = no growth, -100 = all killed)
Cond: 10 µM unless noted
The panel holds about 83,000 compounds, 20% with a hit somewhere; the sample as a whole holds those more often.
Quick rule for you: growth at 60% or higher means true, lower means false.

input: Confirm if growth reported for the compound CC(=O)N1N=C(c2ccc(C(F)(F)F)c(F)c2)CC1c1[nH]c(C)c(C(=O)NCC(F)(F)F)c1C (centres undefined) is 60% or above.
output: false

input: Confirm if growth reported for the compound "COC(=O)/C=C1/SC(=Nc2ccc(C(F)(F)F)cc2)N(CCc2c[nH]c3ccc(O)cc23)C1=O" is 60% or above.
output: false

input: Confirm if growth reported for the compound "O=S(=O)(NCCCNc1nccc(-c2c(-c3ccc(F)c(O)c3)nc3sccn23)n1)c1ccccc1" is 60% or above.
output: false

input: Confirm if growth reported for the compound "O=C(Nc1ccc(Oc2cccc(F)c2)c(Cl)c1)c1cccnc1" is 60% or above.
output: false

input: Confirm if growth reported for the compound "CCC1=C[C@@H]2C[C@]3(C(=O)OC)c4[nH]c5ccccc5c4CC[N@+](CC(=O)Nc4cc5c(cc4OC)N(C)[C@H]4[C@@](O)(C(=O)OC)[C@H](OC(C)=O)[C@]6(CC)C=CCN7CC[C@]54[C@@H]76)(C2)[C@H]13" is 60% or above.
output: true

More entries:
input: Confirm if growth reported for the compound "c1csc(-c2ccc(CNc3c4ccccc4nc4ccccc34)cc2)c1" is 60% or above.
output: false

input: Confirm if growth reported for the compound "Cc1cccc(CNc2c3ccccc3nc3ccccc23)c1" is 60% or above.
output: false

input: Confirm if growth reported for the compound COC(CC(F)F)c1cn(S(=O)(=O)c2ccc(C)cc2)c2ccccc12 (centres undefined) is 60% or above.
output: false

input: Confirm if growth reported for the compound "CCSc1nc2scc(C)c2c(=O)[nH]1" is 60% or above.
output: true

input: Confirm if growth reported for the compound "Cn1c(I)c(C#CCO[Si](C)(C)C(C)(C)C)c(=O)[nH]c1=O" is 60% or above.
output: false

input: Confirm if growth reported for the compound "CC(C)(C)CC(C)(C)NC(=O)Nc1ncccc1OCc1ccccc1" is 60% or above.
output: true

input: Confirm if growth reported for the compound "CN(C)c1ccc(C(=O)OCCCCCCl)cc1" is 60% or above.
output: true

input: Confirm if growth reported for the compound "CC1=NC2=Nn3c(c4cnn(-c5ccccc5)c4n/c3=N\N)NN2C(c2ccccc2)=C1" is 60% or above.
output: true

input: Confirm if growth reported for the compound CC(C)=CCCC(C)c1ccc(C)c2c1OCN(CCCCCO)C2 (centres undefined) is 60% or above.
output: true

input: Confirm if growth reported for the compound "Cc1ccccc1/C=C/C(=O)c1cccc(OCCCCOc2cccc(C(=O)/C=C/c3ccccc3C)c2)c1" is 60% or above.
output: true

input: Confirm if growth reported for the compound "N#Cc1c(-c2ccc(Cl)cc2)nc(NN2C(=O)c3ccccc3C2=O)nc1N1CCOCC1" is 60% or above.
output: true

input: Confirm if growth reported for the compound "CC1(C)COB(OCC(C)(C)COB2OCC(C)(C)CO2)OC1" is 60% or above.
output: true

input: Confirm if growth reported for the compound "CC/C(=C(/c1ccc(Cl)cc1)c1ccc(OCCN2CCCCC2)cc1)c1ccc(OC)cc1" is 60% or above.
output: false
